Test details: qHTS profiling for inhibitors of Plasmodium falciparum proliferation (AID 504749);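 also: 0% = DMSO vehicle and full inhibition = artemisinin control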
Measurement parameters: P. falciparum in erythrocytes, SYBR Green DNA, 72 h; at 28.7 µM (top of the series); parasite line A
Records with an inconclusive call do not appear.
Measure: activity, negative = inhibition (%)
The reply should be a number in %, with the unit left off.

// activity, negative = inhibition lookup, key: O=C1CCC(=O)N1CO -2.35

Name the recorded activity, negative = inhibition for O=C(O)c1ccc(OCCn2ccnc2)cc1 . 13.9

Could you share which activity, negative = inhibition value was measured for OC/C=C/c1ccccc1 ? -0.356

Name the recorded activity, negative = inhibition for [O-][N+](=Nc1ccccc1)c1ccccc1 . -5.95

Recorded activity, negative = inhibition of O=C(O)c1ccc(NC(=O)[C@H](Cc2ccc(O)cc2)NC(=O)c2ccccc2)cc1 , please. 3.76

Would you mind telling me what activity, negative = inhibition value was observed for CCCCCCCCCCCCOCCCN ? -4.13

What measured activity, negative = inhibition goes with CC/C=C\C/C=C\C/C=C\CCCCCCCC(=O)O ? -1.47

For the compound CC(C)(CO)[C@@H](O)C(=O)NCCC(=O)NCCSSCCNC(=O)CCNC(=O)[C@H](O)C(C)(C)CO , what activity, negative = inhibition is on record? -1

Could you share which activity, negative = inhibition value was measured for CCCCC(CC)CCC(CC(C)C)OS(=O)(=O)O (configuration not stated) ? -0.0494

Tell me the measured activity, negative = inhibition of CO/N=C(\C(=O)N[C@@H]1C(=O)N2C(C(=O)[O-])=C(C[n+]3cccc4c3CCC4)CS[C@H]12)c1csc(N)n1 , please. 12.2

Looking for the measured activity, negative = inhibition of O=C1c2ccccc2C(=O)C1c1ccc(F)cc1 , can you help? -6.63

Value lookup for activity, negative = inhibition; key = CCC(Cc1c(I)cc(I)c(O)c1I)C(=O)O (configuration not stated) 0.0242

# lookup: activity, negative = inhibition of [O]=[Bi][O][Bi]=[O] 0.672

Which value of activity, negative = inhibition has been reported for N[C@@H](Cc1cc(I)c(Oc2ccc(O)c(I)c2)c(I)c1)C(=O)O in the records? -3.92

Please look up its activity, negative = inhibition: NCC[C@H](O)C(=O)N[C@@H]1C[C@H](N)[C@@H](O[C@H]2O[C@H](CN)[C@@H](O)[C@H](O)[C@H]2O)[C@H](O)[C@H]1O[C@H]1O[C@H](CO)[C@@H](O)[C@H](N)[C@H]1O 2.54

Consider the compound CCN(CC)CCOC(=O)c1cccnc1 and give its measured activity, negative = inhibition. -11.6

Would you mind telling me what activity, negative = inhibition value was observed for CO/N=C(/C(=O)N[C@@H]1C(=O)N2C(C(=O)O)=C(COC(N)=O)CS[C@H]12)c1ccco1 ? 6.01

Report activity, negative = inhibition for CCC(C)[C@@H](N)C(=O)O (some centres not stated) please. 11.4

Looking for the measured activity, negative = inhibition of CCOc1ccc(S(=O)(=O)O)c2cccnc12 , can you help? 8.12

Please look up its activity, negative = inhibition: CCOC(=S)SSC(=S)OCC 12.6

Name the recorded activity, negative = inhibition for C[C@H](O)CN(C)C . 9.28

Data request, read-out activity, negative = inhibition, for OCC1(CO)COC(C(Cl)(Cl)Cl)OC1 2.06

What value of activity, negative = inhibition has been recorded for this entry: CCOC(=O)[C@@H](N)CS -7.81

For the compound shown here, [O]=[Bi][O]C(=O)[O][Bi]=[O] , give the reported activity, negative = inhibition. 3.84

Can you look up the measured activity, negative = inhibition of O=C(O)CCC/C=C\C[C@@H]1[C@@H](/C=C/[C@@H](O)COc2cccc(Cl)c2)[C@H](O)C[C@@H]1O for me? 11.9

Sample CCCCCc1ccc(C)cc1O — what was its activity, negative = inhibition? -9.62

Using the record for CN(C)CCCSc1ccccc1NC(=O)/C=C/c1ccccc1 , report its activity, negative = inhibition. 13.3

State the recorded activity, negative = inhibition for this entry: O=C(OCc1ccccc1)c1ccc(O)cc1 10.7

What value of activity, negative = inhibition has been reported for the following compound? C[C@H](CCC(=O)O)[C@H]1CC[C@H]2[C@@H]3CC[C@@H]4C[C@H](O)CC[C@]4(C)[C@H]3C[C@H](O)[C@]12C 0.235

Using the record for O=C(CCCN1CCN2CCCC2C1)c1ccc(F)cc1 (configuration not stated) , report its activity, negative = inhibition. 12

// returns reported activity, negative = inhibition for input O=C(OC1C[C@@H]2CC3C[C@H](C1)N2CC3=O)c1c[nH]c2ccccc12 (some centres not stated) -11.9

activity, negative = inhibition for O=[N+]([O-])c1c(Cl)cccc1-c1c[nH]cc1Cl ? -12.9

Any idea what activity, negative = inhibition was measured for CC/C=C\C/C=C\C/C=C\C/C=C\C/C=C\C/C=C\CCC(=O)O ? -24.9

Which activity, negative = inhibition reading was recorded for the compound O=C(O)Cc1nn(Cc2ccc(Br)cc2F)c(=O)c2ccccc12 ? 0.835

Name the reported activity, negative = inhibition value associated with the compound NC(N)=O 0.0876

Find the recorded activity, negative = inhibition belonging to CC1CC(O)CC(C)(C)C1 (configuration not stated) and report it. -1.2

Entry COc1ccccc1N1CCN(CCCC(=O)c2ccc(F)cc2)CC1 has what activity, negative = inhibition? -16.2

So what does the record say about activity, negative = inhibition for CC1(O)CCC(C(C)(C)O)CC1 (configuration not stated) ? -2.29

What does the record list as activity, negative = inhibition for COC1=C(OC)C(=O)C(C/C=C(\C)CC/C=C(\C)CC/C=C(\C)CC/C=C(\C)CC/C=C(\C)CC/C=C(\C)CC/C=C(\C)CC/C=C(\C)CC/C=C(\C)CCC=C(C)C)=C(C)C1=O ? -2.4

// query activity, negative = inhibition value for entry CCCCCCCCCCCCCCCCCCCCCC(=O)Nc1ccn([C@@H]2O[C@H](CO)[C@@H](O)[C@@H]2O)c(=O)n1 4.02

Given the compound C=CCOc1ccc(CC(=O)O)cc1Cl , what is its reported activity, negative = inhibition? 8.56

What does the record list as activity, negative = inhibition for Nc1nccs1 ? 12.4

Entry under review: C=Cc1ccc(S(=O)(=O)O)cc1 . Reported activity, negative = inhibition? 12.2

Any idea what activity, negative = inhibition was measured for C[Si](C)(C)O[Si](C)(C)C ? 4.89

Query (compound): O=P(O)(O)OC[C@H](O)CO ; field requested: activity, negative = inhibition -1.1

I would be grateful if you could share the reported activity, negative = inhibition for O=P(O)(O)OC[C@H]1O[C@](O)(COP(=O)(O)O)[C@@H](O)[C@@H]1O . 8.54

Consider the compound shown here: CN(C)c1ccc(C(=C2C=CC(=[N+](C)C)C=C2)c2c(O)c(S(=O)(=O)[O-])cc3cc(S(=O)(=O)O)ccc23)cc1 What is its recorded activity, negative = inhibition? -15.9
